Tested on: MCF-7, cancer cell line
assay-name: MCF-7 growth inhibition (SRB or Sysmex cell counting)
Type: cell-based
condition-details: concentration required to inhibit net cell growth by 50%; SRB or CC assay
pIC50: −log10 of the molar value.
Label MET for high-side pIC50 (at or above 8) and NOT MET for low-side pIC50 (below it).

COc1cc(C(=O)c2c(-c3nccs3)oc3c(OP(=O)(O)O)c(OC)ccc23)cc(OC)c1OC    MET
COc1ccc2c(C(=O)c3cc(OC)c(OC)c(OC)c3)c(-c3ccc(OC)nc3)oc2c1    NOT MET
COc1ccc2c(C(=O)c3cc(OC)c(OC)c(OC)c3)c(-c3cnn(CCN(C)C)c3)oc2c1    NOT MET
COc1cc(C(=O)c2c(-c3cnn(C)c3)oc3c2ccc2ocnc23)cc(OC)c1OC    NOT MET
COc1ccc2c(C(=O)c3cc(OC)c(OC)c(OC)c3)c(-c3cnn(CC(=O)O)c3)oc2c1    NOT MET
COc1ccc2c(C(=O)c3cc(OC)c(OC)c(OC)c3)c(-c3cnn(CC(N)=O)c3)oc2c1    MET
COc1ccc(-n2cc(-c3oc4cc(OC)ccc4c3C(=O)c3cc(OC)c(OC)c(OC)c3)cn2)cc1    NOT MET
COc1cc(C(=O)c2c(-c3ccc(C=O)s3)oc3c(O)c(OC)ccc23)cc(OC)c1OC    MET
COc1ccc2c(C(=O)c3cc(OC)c(OC)c(OC)c3)c(-c3cnn(Cc4ccccc4)c3)oc2c1    NOT MET
COc1cc(C(=O)c2c(-c3ccco3)oc3c(OP(=O)(O)O)c(OC)ccc23)cc(OC)c1OC    MET

Could you tell me if the measured pIC50 of COc1ccc2c(C(=O)c3cc(OC)c(OC)c(OC)c3)c(-c3cnn(C)c3)oc2c1 reaches 8 or more?
MET

Answer whether pIC50 of COc1ccc(-c2oc3c(O)c(OC)ccc3c2C(=O)c2cc(OC)c(OC)c(OC)c2)cc1O [Entry 5, reference compound] is greater than or equal to 8.
MET

hey, is pIC50 for this one >= 8? COc1ccc2c(C(=O)c3cc(OC)c(OC)c(OC)c3)c(-c3ccsc3)oc2c1
NOT MET

---

Test system: MCF-7, cancer cell line
assay-name: MCF-7 growth inhibition (SRB or Sysmex cell counting)
Type: cell-based
condition-details: concentration required to inhibit net cell growth by 50%; SRB or CC assay
assay-metric: IC50 (nM)
Unit nM implied. Number only.

Worked set:
COc1ccc2c(C(=O)c3cc(OC)c(OC)c(OC)c3)c(-c3c[nH]cn3)oc2c1    5.7
COc1cc(C(=O)c2c(-c3cnn(C)c3)oc3c(F)c(OC)ccc23)cc(OC)c1OC    3.6
COc1cc(C(=O)c2c(-c3c(C)noc3C)oc3c(O)c(OC)ccc23)cc(OC)c1OC    57
COc1ccc2c(C(=O)c3cc(OC)c(OC)c(OC)c3)c(-c3cn[nH]c3)oc2c1    4
COc1cc(C(=O)c2c(-n3cccc3)oc3c(O)c(OC)ccc23)cc(OC)c1OC    2.1
COc1ccc2c(C(=O)c3cc(OC)c(OC)c(OC)c3)c(-c3cn(C)cn3)oc2c1    35
COc1cc(C(=O)c2c(-c3cnn(C)c3)oc3c(N)c(OC)ccc23)cc(OC)c1OC    1.2
COc1ccc2c(C(=O)c3cc(OC)c(OC)c(OC)c3)coc2c1 [Entry 6, reference compound]    50
COc1cc(C(=O)c2coc3c(O)c(OC)ccc23)cc(OC)c1OC [Entry 7, reference compound]    31
COc1ccc2c(C(=O)c3cc(OC)c(OC)c(OC)c3)c(N3CCN(C)CC3)oc2c1    230

Fill in IC50 for COc1cc(C(=O)c2c(-n3cncn3)oc3c(O)c(OC)ccc23)cc(OC)c1OC tested with MCF-7, cancer cell line.
0.32
